target: TDP-43 (Homo sapiens, UniProt Q13148 1-414); test: RNA Bind-n-Seq with designed 260-mer pool; 25 mM Tris-HCl, 150 mM KCl, 3 mM MgCl2, BSA (printed 500 mg/mL), 20 units/mL SUPERase IN; pH not stated; 500 nM RNA pool, 1 h, 4 C; TDP-43 5, 50, 500 nM; high values mean tight binding; settings: protein: recombinant; tags: SBP (GST cleaved off with PreScission; pGEX-GST-SBP)
Sequence (Q13148 whole entry): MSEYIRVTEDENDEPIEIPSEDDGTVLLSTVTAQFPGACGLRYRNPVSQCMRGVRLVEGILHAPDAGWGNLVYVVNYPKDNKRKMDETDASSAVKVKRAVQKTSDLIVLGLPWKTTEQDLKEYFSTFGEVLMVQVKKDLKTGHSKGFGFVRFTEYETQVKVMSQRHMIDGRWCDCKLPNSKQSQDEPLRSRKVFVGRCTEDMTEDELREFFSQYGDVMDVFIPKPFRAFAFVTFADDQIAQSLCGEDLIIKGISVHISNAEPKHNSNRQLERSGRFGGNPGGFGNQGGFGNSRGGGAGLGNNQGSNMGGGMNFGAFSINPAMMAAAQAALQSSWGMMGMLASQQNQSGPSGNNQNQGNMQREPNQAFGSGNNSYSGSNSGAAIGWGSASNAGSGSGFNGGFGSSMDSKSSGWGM
Whole data set: some 9,900 sequences, median “r (bound/input frequency ratio)” near 0.7, cut for the highest 2% near 6.5. Many of the other results were omitted from the sample, so the highest values are more common in it than they were.
Exercise: state measured binding signal for each of the binders provided.

>>> result("ENSMUSG00000061578.129|Ksr2 (ssRNA) RNA: GGGAGUUCUACAGUCCGACGAUCGCUUCGAUAUCCGCAUGCUAGGUGUGACCUUUACCAGUUCACCAUCAUUCAUGGCUUCCCCCAAAGUCCCGAGUCCUGAGAACCGGGGCUGUGGCAAGAGAGUUCUGGUGUGUUCUCUCUGUGGGGCUAGCAAUGCCGGGGUUAAGUUCUCCCUCGGUGAUGGAGACGGUCCUGGGUAUGCAUGAUGGGUUACAUGGGUGUGUGUGUGUGUGUAACUGUUUACAAUGGUCUCCCUGCCUCUCACGGGCUGUGUUCCAGGAGAAUGCACAUAGAGAGGUUCCUCUUGCGGUCGCACUAGUGUGGAAUUCUCGGGUGUCAAGG")
"4.45 R (bound/input frequency ratio)"

# binder ENSMUSG00000058297.298|Spock2 (ssRNA) RNA: GGGAGUUCUACAGUCCGACGAUCGCUUCGAUAUCCGCAUGCUAAGAGAAUACCCGAGGGCCACCCUGAUGCCCAGGAAGAGUGAGGGCAGCCCCCUGUGUGGUGGAAGAGGCUGGGCAGCUAGCUACUGGGGACCUUGUGCUGAGGCUUCCAGGACAAAGCCCCAGUCUGGCUCUCCCCCAGCCUCUCAGGGGCACUGGCUGGUCACAUCCACUGAGUAUUGAUCGGUUGGACUUUAGGGAAGAGCCUCCUCCUUCCCAUUCCUUUCUGCCACCCUGGAAUGGCCACCUUAAUCGUCAUCUCCCUCUUGCGGUCGCACUAGUGUGGAAUUCUCGGGUGUCAAGG ; its binding signal = 3.7 R (bound/input frequency ratio)
